target: Histone deacetylase 1 (Homo sapiens, UniProt Q13547); assay: Inhibition of human recombinant HDAC1 using fluorogenic substrate measured after 30 mins
Sequence (Q13547 whole entry): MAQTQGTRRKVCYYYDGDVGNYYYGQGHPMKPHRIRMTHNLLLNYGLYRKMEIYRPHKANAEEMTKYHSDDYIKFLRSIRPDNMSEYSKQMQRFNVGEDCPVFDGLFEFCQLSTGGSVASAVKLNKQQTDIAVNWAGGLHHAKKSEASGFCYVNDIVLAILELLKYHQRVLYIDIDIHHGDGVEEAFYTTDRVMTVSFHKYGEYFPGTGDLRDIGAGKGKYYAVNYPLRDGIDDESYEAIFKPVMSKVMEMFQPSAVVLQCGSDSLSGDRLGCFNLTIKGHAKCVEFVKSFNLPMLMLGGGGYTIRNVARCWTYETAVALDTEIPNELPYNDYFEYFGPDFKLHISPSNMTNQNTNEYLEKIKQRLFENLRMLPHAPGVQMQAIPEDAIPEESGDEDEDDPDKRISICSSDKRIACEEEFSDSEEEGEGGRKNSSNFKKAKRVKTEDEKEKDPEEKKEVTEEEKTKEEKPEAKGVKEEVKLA
value_type: IC50 (nM)

// solved cases for IC50 follow
O=C(NO)c1ccc(Cn2ncnc2-c2ccccc2)cc1    341
O=C(NO)c1ccc(Cn2cnc(-c3cccc(Cl)c3)n2)cc1    111
O=C(NO)c1ccc(Cn2cnc(-c3cccc(OC(F)(F)F)c3)n2)cc1    212
O=C(NO)c1ccc(Cn2cnc(-c3ccccc3F)n2)cc1    256

[A] O=C(NO)c1ccc(Cn2cnc(-c3ccccc3)n2)c(F)c1
[B] O=C(NO)c1ccc(Cn2cnc(-c3cc(F)cc(F)c3)n2)cc1
Returns: the argument ( A or B ) having the larger IC50. In your reply, give the label of the chosen option.
A

Cited source for all entries: ChEMBL document CHEMBL5223156
